molecular target: FGFR1 (human); assay: radiometric filter-binding kinase assay; details: compound 0.01 µM
Each entry below carries its recorded residual activity.
Return type: number; implicit unit %.

Below, each entry is followed by its recorded residual activity result.
COc1cc(O)c2c(c1)[C@H]1OC1C[C@H](O)[C@H](O)C(=O)/C=C\C[C@H](C)OC2=O (stereo partly specified)    118
C/C(=C1/C(=O)Nc2ccc(NC(N)=O)cc21)c1ccc[nH]1    61
CNc1nc(-c2ccc3c(N)n[nH]c3c2)cc(N2C[C@@H](C(=O)NC3CCCCC3)CC[C@H]2C)n1    119
CNC(=O)C1[C@H]2O[C@@](C)([C@@H]1N)n1c3ccccc3c3c4c(c5c6ccccc6n2c5c31)C(=O)NC4 (stereo partly specified)    53
COc1ccc(N(C(=O)Nc2c(C)cccc2C)c2cc(Nc3ccc(N4CCN(C)CC4)cc3)ncn2)c(OC)c1    102

Next, consider the following molecule.
response.value for "O=C(Nc1nc2cc(C(F)(F)F)cc(NC3CC3)n2n1)c1cccnc1" (field: residual activity) = 111

Source: the kinase profiling compilation of Christmann-Franck et al. (2016)
